Below is a list of entries, each paired with its recorded IC50 value.
- SYSTEM_UNDER_TEST: α4β1 integrin (Homo sapiens (Human), UniProt P05556+P13612)
- Sequence (P13612 34-1032): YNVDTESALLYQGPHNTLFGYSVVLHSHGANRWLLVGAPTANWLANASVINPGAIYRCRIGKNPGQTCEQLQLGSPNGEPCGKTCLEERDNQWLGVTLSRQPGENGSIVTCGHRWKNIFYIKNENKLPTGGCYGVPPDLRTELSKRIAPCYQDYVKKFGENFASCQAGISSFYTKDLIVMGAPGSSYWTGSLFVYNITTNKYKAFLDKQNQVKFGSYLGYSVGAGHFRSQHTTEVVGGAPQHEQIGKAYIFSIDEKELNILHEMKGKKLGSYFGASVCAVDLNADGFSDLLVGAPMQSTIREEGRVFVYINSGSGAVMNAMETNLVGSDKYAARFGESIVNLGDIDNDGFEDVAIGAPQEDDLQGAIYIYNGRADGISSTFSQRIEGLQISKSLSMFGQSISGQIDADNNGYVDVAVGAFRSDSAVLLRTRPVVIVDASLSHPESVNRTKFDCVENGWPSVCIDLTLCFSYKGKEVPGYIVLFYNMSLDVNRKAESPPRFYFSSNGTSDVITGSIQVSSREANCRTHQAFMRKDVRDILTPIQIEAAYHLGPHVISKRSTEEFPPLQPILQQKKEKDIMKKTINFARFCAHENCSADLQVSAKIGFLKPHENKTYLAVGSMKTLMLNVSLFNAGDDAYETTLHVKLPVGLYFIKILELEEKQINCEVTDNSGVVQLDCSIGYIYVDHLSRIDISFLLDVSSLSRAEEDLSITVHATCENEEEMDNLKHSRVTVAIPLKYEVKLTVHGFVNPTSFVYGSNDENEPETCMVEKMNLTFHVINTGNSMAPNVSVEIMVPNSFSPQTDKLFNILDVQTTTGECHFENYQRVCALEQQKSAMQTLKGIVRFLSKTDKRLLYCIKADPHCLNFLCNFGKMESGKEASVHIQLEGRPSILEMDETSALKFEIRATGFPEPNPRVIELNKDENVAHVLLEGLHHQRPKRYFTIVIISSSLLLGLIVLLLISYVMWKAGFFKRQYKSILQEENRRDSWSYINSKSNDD
- Sequence (P05556 21-798): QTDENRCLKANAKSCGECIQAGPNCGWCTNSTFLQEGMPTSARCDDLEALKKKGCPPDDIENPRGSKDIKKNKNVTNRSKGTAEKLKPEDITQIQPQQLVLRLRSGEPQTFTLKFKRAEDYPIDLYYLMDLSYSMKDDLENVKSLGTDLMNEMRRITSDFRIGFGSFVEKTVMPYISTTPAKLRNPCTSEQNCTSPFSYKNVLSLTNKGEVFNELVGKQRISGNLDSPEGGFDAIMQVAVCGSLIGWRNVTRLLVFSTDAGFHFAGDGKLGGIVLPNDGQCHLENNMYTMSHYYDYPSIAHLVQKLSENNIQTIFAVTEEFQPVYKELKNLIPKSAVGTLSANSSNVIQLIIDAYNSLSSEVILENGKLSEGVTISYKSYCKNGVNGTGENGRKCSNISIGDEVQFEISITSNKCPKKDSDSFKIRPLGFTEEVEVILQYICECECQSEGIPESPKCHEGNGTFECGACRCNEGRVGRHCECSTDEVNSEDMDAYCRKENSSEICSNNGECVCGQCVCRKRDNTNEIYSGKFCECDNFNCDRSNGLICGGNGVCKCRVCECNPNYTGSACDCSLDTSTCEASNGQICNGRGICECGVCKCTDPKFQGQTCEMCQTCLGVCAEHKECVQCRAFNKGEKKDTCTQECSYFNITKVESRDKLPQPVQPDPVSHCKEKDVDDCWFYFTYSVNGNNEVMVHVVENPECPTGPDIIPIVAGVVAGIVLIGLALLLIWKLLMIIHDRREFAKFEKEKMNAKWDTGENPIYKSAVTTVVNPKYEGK
- RUN_DESCRIPTION: Integrin Adhesion Assay: Protocol 5 (VCAM-coated plate, RPMI-8866 cells with stable LOF mutation of the ITGB7 gene)
- Type: cell-based
- MEASUREMENT_PARAMETERS: Protocol 5; RPMI-8866 cells with LOF mutation of ITGB7, VCAM; read-out: Mean IC50 α4β1 KO

Guide cases for IC50, answers given:
{"columns": ["COMPOUND", "VALUE_MEASURED"],
 "data": [
  ["COc1ccc2ccnc(-c3cccc4c(C[C@H](NC(=O)C5(C(F)(F)F)CCN(CC(F)(F)F)CC5)C(=O)O)cccc34)c2c1", "> 1000 nM"],
  ["CCc1c(CN(C)C)ccc(OC)c1-c1cccc2c(C[C@H](NC(=O)c3c(C)cccc3F)C(=O)O)cccc12", "100 to 1000 nM"]
]}

get_value(item= COc1ccc(CN2CC3C(C2)C3(C)C)c(OC)c1-c1cccc2c(C[C@H](NC(=O)C3(C(F)(F)F)CCN(CC(F)(F)F)CC3)C(=O)O)cccc12 (stereo partly drawn) , readout=IC50) returns 100 to 1000 nM

====

- SYSTEM_UNDER_TEST: α4β1 integrin (Homo sapiens (Human), UniProt P05556+P13612)
- RUN_DESCRIPTION: Integrin Adhesion Assay: Protocol 2 (VCAM-coated plate, Jurkat cells, CellTiter GLO readout)
- Type: cell-based
- MEASUREMENT_PARAMETERS: determined by at least one of the assays described (protocol not specified)
IC50 reference

Examples with their reported IC50 follow.
{"columns": ["COMPOUND", "SYSTEM_UNDER_TEST", "IC50"],
 "data": [
  ["Cn1ccc(C(F)(F)F)c(-c2nccc3c(C[C@H](NC(=O)c4c(F)cccc4F)C(=O)O)cccc23)c1=O [Compound 210]", "α4β1 integrin (Homo sapiens (Human), UniProt P05556+P13612)", "> 1000 nM"],
  ["Cn1ccc(=O)n(-c2cccc3c(C[C@H](NC(=O)c4c(F)cc(NS(C)(=O)=O)cc4F)C(=O)O)cccc23)c1=O [Compound 111]", "α4β1 integrin (Homo sapiens (Human), UniProt P05556+P13612)", "100 to 1000 nM"],
  ["O=C(N[C@@H](Cc1cccc2c(-c3nccc4ccncc34)cccc12)C(=O)O)c1c(F)cc(N2CCOC[C@@H]2C(F)(F)F)cc1CN1CCOCC1 [Compound 129]", "α4β1 integrin (Homo sapiens (Human), UniProt P05556+P13612)", "100 to 1000 nM"],
  ["CCC1(C(=O)N[C@@H](Cc2cccc3c(-n4c(=O)ccn(C)c4=O)cccc23)C(=O)O)CCC(F)(F)CC1 [Compound 66]", "α4β1 integrin (Homo sapiens (Human), UniProt P05556+P13612)", "> 1000 nM"],
  ["Cn1ccc(=O)n(-c2cccc3c(C[C@H](NC(=O)C4(C)CCN(CC(F)F)CC4)C(=O)O)cccc23)c1=O [Compound 58]", "α4β1 integrin (Homo sapiens (Human), UniProt P05556+P13612)", "> 1000 nM"]
]}

The measured IC50 associated with O=C(N[C@@H](Cc1cccc2c(-c3cccc4ccncc34)cccc12)C(=O)O)c1c(F)cc(N2CCOC[C@@H]2C(F)(F)F)cc1CN1CCCC1 [Compound 148] reads > 1000 nM

Record summary for Cn1c(=O)c2ccccc2n(-c2cccc3c(C[C@H](NC(=O)c4c(F)cccc4F)C(=O)O)cccc23)c1=O [Compound 3] : reported IC50 = > 1000 nM

Memo: Cn1ccc(C(F)(F)F)c(-c2nccc3c(C[C@H](NC(=O)c4c(F)cc(N5CCOCC56CC6)cc4F)C(=O)O)cccc23)c1=O [Compound 217] , reported IC50: > 1000 nM

Form: compound = CCOCc1cc(OC)c(-c2nccc3c(C[C@H](NC(=O)c4c(F)cc(N5CCOC[C@@H]5C(F)(F)F)cc4F)C(=O)O)cccc23)c(OC)c1 [Compound 259] ; IC50 = 100 to 1000 nM

Reported IC50 of Cn1ccc(=O)n(-c2cccc3c(C[C@H](NC(=O)c4c(F)cc(C(F)(F)F)cc4F)C(=O)O)cccc23)c1=O [Compound 26] : > 1000 nM
